# Test system: SW-620
# experimental_details: NCI tumour cell line growth inhibition, 48 h
Calls of active or inactive are those of the source. Cut-off read from the data, not from the text of the source: active = GI50 up to about 1.1 µM and inactive = higher.
Classes used: active, inactive

molecule | assigned_class
Cn1c(=O)nc2n(-c3ccc(F)cc3)c3ccccc3nc-2c1=O | inactive
O=C(Cc1ccccc1)N/N=C(/c1nc2ccc([N+](=O)[O-])cc2nc1O)C(O)c1ccco1 (stereo not drawn) | inactive
Cc1ccc(CCNC(=S)SCC(NC(=O)CCC(N)C(=O)O)C(=O)NCC(=O)O)cc1 (stereo not drawn) | active
CN(C)CCCSc1c2ccccc2nc2cc(NCC(=O)Nc3ccccc3-c3ccccc3NC(=O)CNc3ccc4c(SCCCN(C)C)c5ccccc5nc4c3)ccc12 | inactive
O=c1[nH]c(=S)[nH]c(-c2ccccc2)c1Cc1c(O)ccc2ccccc12 [CAMBINOL] | inactive
CC1=NN(C(=O)Nc2ccc(Cl)cc2)C(=O)C2CCC(=O)N12 (stereo not drawn) | inactive
Cc1ccc(-c2cc(=O)c3cc(C)c(C)c(C(=O)O)c3o2)cc1N | inactive
O=C1CC(=O)NC(NN2C(=O)/C(=C/c3ccc(Cl)cc3)N=C2c2ccccc2)=N1 | inactive
CC(C)C(NC(=O)C(Cc1ccccc1)NC(=O)[C@H]1CCC[C@H]1NC(=O)C(Cc1ccc(OC(C)(C)C)cc1)NC(=O)OC(C)(C)C)C(N)=O (stereo partly drawn) | inactive
Cc1ccc2nc(C(=O)O)c(=O)[nH]c2c1 | inactive
c1ccc2c(Nc3ncco3)cccc2c1 | inactive
Cc1ccc2c(=O)c(-c3nnc(N)s3)c[nH]c2n1 | inactive
CCOC(=O)Nc1ccc(S(=O)(=O)Nc2ccc(Br)cc2)cc1 | inactive
CCC(=C(c1ccc(OCc2ccccc2)cc1)c1ccc(OCc2ccccc2)cc1)c1ccc(OC)cc1 | inactive
COc1cc2c3c(n(C)c(=O)c2cc1OC)-c1cc2c(cc1/C3=C\CCCI)OCO2 | active
C[C@]12CCC(=O)C=C1CC[C@@H]1[C@@H]2CC[C@]2(C)C(=O)NC(=O)C[C@@H]12 | inactive
c1c2c(cc3c1OCO3)-c1cc3ccc4c(c3c[n+]1CC2)OCO4 [COPTISINE CHLORIDE] | active
C/C(=N\NC(=S)N1CCC(N2CCCCC2)CC1)c1ccccn1 | inactive
CCc1c[n+]2c(cc1C1=CN3c4ccccc4[C@]45CCN6C/C(=C/CO)[C@H](C[C@H]64)[C@@H]([C@@H]1O)[C@H]35)-c1[nH]c3ccccc3c1CC2 | inactive
COCOCCC#CCO | inactive
CC(=O)NC1C(OCc2ccccc2)OC(CO)C(O)C1OCC(=O)N1CCCC1C(=O)N[C@@H](CCC(=O)NCCNCCNc1c2ccccc2nc2cccc([N+](=O)[O-])c12)C(N)=O (stereo partly drawn) | inactive
COc1ccc2c(c1)-c1nc(=S)n(CCN(C)C)c3ccc([N+](=O)[O-])c(c13)N2 | active
c1cncc(C(Nc2cccc3cccnc23)Nc2cccc3cccnc23)c1 | inactive
CC(C)CC1c2[nH]c3ccccc3c2C[C@H]2C(=O)NC(Cc3c[nH]c4ccccc34)C(=O)N12 (stereo partly drawn) | inactive
CCN(CC)C(=O)COc1cc2c(O)c3c(O)c(C)c4c(c13)C(=O)C(C)(OC=CC(OC)C(C)C(OC(C)=O)C(C)C(O)C(C)C(O)C(C)C=CC=C(C)C(=O)N2)O4 (stereo not drawn) | inactive
NC(=O)c1ncn(C2OC(CO)C(O)C2O)c1NC(=S)NC(=O)c1ccccc1 (stereo not drawn) | inactive
c1ccc2c(c1)c1c(n2CCOCCN2CCCCC2)CCCC1 | inactive
COc1ccc(CNC(C)C(=O)O)cc1 (stereo not drawn) | inactive
CCCCCC(=O)OCC(=O)[C@H]1[C@H](C)C[C@H]2[C@@H]3C[C@H](F)C4=C/C(=N/OC(=O)c5cccc6c(=O)c7ccccc7[nH]c56)C=C[C@]4(C)[C@H]3[C@@H](O)C[C@@]21C | inactive
CC(=O)SC(SC(C)=O)SC(C)=O | inactive
CCCCOC(=O)C1CN2C=CC=NC2=NC1(C(F)(F)F)C(F)(F)F (stereo not drawn) | inactive
Nc1ncnc2c1ncn2COC/C=C/I | inactive
O=C(CSc1nnc(-c2ccccn2)s1)N/N=C/c1ccc([N+](=O)[O-])cc1 | inactive
O=c1n(Cc2ccccc2)c(=O)n2c(=O)n(Cc3ccccc3)c(=O)n12 | inactive
O=C1c2ccccc2-c2nc(-c3ccncc3)cc3c2c1nc1ccccc13 | inactive
S=c1[nH]nc(COc2ccc3c(c2)CCCC3)n1/N=C/c1ccc(Cl)cc1 | inactive
NC(CCCNCc1ccccc1O)C(=O)O (stereo not drawn) | inactive
c1ccc(CN[C@]23C4C5CC6C7C5C2C7[C@@](NCc2ccccc2)(C64)N3Cc2ccccc2)cc1 (stereo partly drawn) | inactive
